target: GLUT1 (Homo sapiens, UniProt P11166); test: Indirect measurement of GLUT1 activity by quantification of intracellular ATP levels (glucose induced ATP increase); type: cell-based; set-up: endogenous in cells; host or cells: DLD1 or CHO-K1; settings: read-out: IC50 regarding glucose induced ATP increase (GLUT1 inhibition)
Group membership follows IC50 per the scheme b0: < 7 nM; b1: ≥ 7 nM and < 60 nM; b2: ≥ 60 nM

Here's what some known entries look like.
Cc1nn(Cc2c(F)cc(C#N)cc2F)c(C)c1NC(=O)c1cc(C(N)=O)nc2cc(F)c(Cl)cc12 [Example 392] = b1
Cc1cc(C(=O)Nc2c(C)nn(Cc3ccc(F)cc3)c2C)c2ccc(Br)cc2n1 [Example 1277] = b2
Cc1nn(Cc2ccc(F)cc2)c(C)c1NC(=O)c1cc(C(F)(F)F)nc2cccc(Br)c12 [Example 34] = b1

-- ask Which class does CCc1nc(Cn2nc(C)c(NC(=O)c3cc(C(N)=O)nc4ccccc34)c2C)no1 [Example 1500] fall in?
-- reply b1

-- ask Which class does Cc1nn(Cc2ccncc2C#N)c(C)c1NC(=O)c1cc(C(N)=O)nc2cc(F)c(Cl)cc12 [Example 285] fall in?
-- reply b0

---

For each record, write down the corresponding IC50.
target: GLUT1 (Homo sapiens); test: Indirect measurement of GLUT1 activity by quantification of intracellular ATP levels (glucose induced ATP increase); type: cell-based; parameters: endogenous in cells; host or cells: DLD1 or CHO-K1; conditions: read-out: IC50 regarding glucose induced ATP increase (GLUT1 inhibition)
Answers are plain numbers, in nM.

Below, each entry is followed by its recorded IC50 result.
Cc1ccc2nc(C)cc(C(=O)Nc3c(C(F)(F)F)nn(Cc4ccc(F)c(F)c4)c3C)c2c1 [Example 203] = 602
COc1cc(C(=O)Nc2c(C)nn(Cc3ccc(C#N)cc3F)c2C)c2ccccc2n1 [Example 1352] = 35.1
Cc1nn(Cc2ccc(F)cc2)c(C)c1NC(=O)c1cc(C(F)(F)F)nc2ccc(C(N)=O)cc12 [Example 1294] = 8120

Now examine the next entry.
-- ask Give the observed IC50 of Cc1ccc2nc(C)cc(C(=O)Nc3c(C)nn(Cc4ccc(C#N)cc4)c3C)c2c1 [Example 44] for GLUT1 (Homo sapiens).
-- reply 32.1

---

biological target: GLUT1 (Homo sapiens, UniProt P11166); assay: Indirect measurement of GLUT1 activity by quantification of intracellular ATP levels (glucose induced ATP increase); format: cell-based; parameters: endogenous in cells; host or cells: DLD1 or CHO-K1; conditions: read-out: IC50 regarding glucose induced ATP increase (GLUT1 inhibition)
Threshold 30 nM: IC50 strictly smaller gives True, otherwise False.

Cc1nn(Cc2cc(C3CC3)on2)c(C)c1NC(=O)c1cc(C(N)=O)nc2ccccc12 = True
Cc1c(NC(=O)c2cc(C(N)=O)nc3c(F)cccc23)c(C(F)(F)F)nn1Cc1ccc(C#N)cc1 = True
Cc1nn(CCc2cccc(F)c2)c(C)c1NC(=O)c1cc(C(N)=O)nc2ccccc12 = False
Cc1nn(Cc2c(F)cccc2F)c(C)c1NC(=O)c1cc(C(N)=O)nc2cccc(F)c12 = True
CCCCS(=O)(=O)N1CCC(Cn2nc(C)c(NC(=O)c3cc(C(N)=O)nc4ccccc34)c2C)CC1 = False
COc1cc(C(=O)Nc2c(C(F)(F)F)nn(Cc3ccncc3C#N)c2C)c2ccccc2n1 = False

Moving on to the next molecule.
-- ask Is 30 nM strictly greater than the molecule's reported IC50? molecule: Cc1nn(Cc2ccc(C(=O)N3CCN(CCO)CC3)cc2)c(C)c1NC(=O)c1cc(C(F)(F)F)nc2ccc(Br)cc12
-- reply False

---

Target: UniProt:P11166
Sequence (P11166 1-492): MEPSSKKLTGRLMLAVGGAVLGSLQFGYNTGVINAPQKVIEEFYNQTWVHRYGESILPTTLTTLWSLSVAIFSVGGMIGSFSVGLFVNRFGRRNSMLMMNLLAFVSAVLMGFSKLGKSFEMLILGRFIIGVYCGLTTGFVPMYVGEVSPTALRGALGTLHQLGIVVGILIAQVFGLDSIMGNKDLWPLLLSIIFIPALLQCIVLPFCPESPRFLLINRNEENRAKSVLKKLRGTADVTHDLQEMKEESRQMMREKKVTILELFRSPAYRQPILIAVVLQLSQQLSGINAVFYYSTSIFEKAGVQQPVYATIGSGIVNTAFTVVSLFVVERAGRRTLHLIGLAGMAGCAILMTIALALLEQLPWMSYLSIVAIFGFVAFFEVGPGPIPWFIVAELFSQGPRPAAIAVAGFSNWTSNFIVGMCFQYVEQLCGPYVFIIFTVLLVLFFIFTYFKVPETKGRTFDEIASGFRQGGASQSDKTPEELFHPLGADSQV
Test: Indirect measurement of GLUT1 activity by quantification of intracellular ATP levels (glucose induced ATP increase)
Type: cell-based
Design: endogenous in cells; host or cells: DLD1 or CHO-K1
Conditions: DLD1 cells; 0.1 mM glucose, 1 μM Rotenone, 15 min; CellTiter-Glo ATP readout; IC50 values standardized to cytochalasin B IC50 values; read-out: IC50 regarding glucose induced ATP increase (GLUT1 inhibition)
propertyName: IC50 (nM)
Give bare numbers, in nM.

Cc1nn(Cc2ccc(F)cc2)c(C)c1NC(=O)c1cc(C(F)(F)F)nc2ccccc12 = 93.8
Cc1c(NC(=O)c2cc(C(N)=O)nc3cc(F)ccc23)c(C(F)(F)F)nn1Cc1ccc(C#N)nc1 = 31.7
Cc1c(NC(=O)c2cc(C(N)=O)nc3cc(F)cc(F)c23)c(C(F)(F)F)nn1Cc1ccc(C#N)cc1 = 0.5

Now examine the next entry.
-- ask Give the value of IC50 reported for the following: Cc1c(NC(=O)c2cc(C(N)=O)nc3cc(F)ccc23)c(C(F)(F)F)nn1Cc1cccc(C#N)c1
-- reply 25

---

biological target: GLUT1 (Homo sapiens); test: Indirect measurement of GLUT1 activity by quantification of intracellular ATP levels (glucose induced ATP increase); type: cell-based; set-up: endogenous in cells; host or cells: DLD1 or CHO-K1; conditions: read-out: IC50 regarding glucose induced ATP increase (GLUT1 inhibition)
pIC50: −log10 of the molar value.
Returns one of Y or N; Y when pIC50 is >= 7.

Cc1nn(Cc2ccc(F)cc2)c(C)c1NC(=O)c1cc(C2CC2)nc2cccc(F)c12 = Y

-- ask Exam item: decide whether the reported pIC50 for Cc1nn(Cc2ccc(F)c(Cl)c2)c(C)c1NC(=O)c1cc(C(F)(F)F)nc2cc(F)c(F)cc12 is at least 7.
-- reply N

-- ask Exam item: decide whether the reported pIC50 for CNC(=O)c1nc(Cn2nc(C(F)(F)F)c(NC(=O)c3cc(C(N)=O)nc4cc(F)c(Cl)cc34)c2C)no1 is at least 7.
-- reply Y

-- ask Exam item: decide whether the reported pIC50 for Cc1nn(Cc2ccc(OC(F)(F)F)cc2)c(C)c1NC(=O)c1cc(C(N)=O)nc2ccc(Br)cc12 is at least 7.
-- reply Y

-- ask Exam item: decide whether the reported pIC50 for CCc1cc(Cn2nc(C)c(NC(=O)c3cc(C(N)=O)nc4cc(F)ccc34)c2C)on1 is at least 7.
-- reply Y

-- ask Exam item: decide whether the reported pIC50 for Cc1nn(CCCc2ccc(C#N)cc2)c(C)c1NC(=O)c1cc(C(F)(F)F)nc2ccc(Br)cc12 is at least 7.
-- reply Y

-- ask Exam item: decide whether the reported pIC50 for Cc1cc2c(C(=O)Nc3c(C)nn(Cc4ccc(C#N)cc4)c3C)cc(C(N)=O)nc2cc1F is at least 7.
-- reply Y

-- ask Exam item: decide whether the reported pIC50 for Cc1nn(CC2CCN(S(=O)(=O)c3ccccc3)CC2)c(C)c1NC(=O)c1cc(C(N)=O)nc2ccccc12 is at least 7.
-- reply N

-- ask Exam item: decide whether the reported pIC50 for Cc1nn(CC(=O)N(C)c2ccc(F)cc2)c(C)c1NC(=O)c1cc(C(N)=O)nc2ccccc12 is at least 7.
-- reply Y

-- ask Exam item: decide whether the reported pIC50 for Cc1nn(Cc2ccc(C(=O)NCCC(C)(C)O)cc2)c(C)c1NC(=O)c1cc(C(F)(F)F)nc2ccc(Br)cc12 is at least 7.
-- reply N

-- ask Exam item: decide whether the reported pIC50 for Cc1cccc(Cn2nc(C)c(NC(=O)c3cc(C)nc4ccc(C)cc34)c2C)c1 is at least 7.
-- reply N

-- ask Exam item: decide whether the reported pIC50 for CC(=O)c1ccc(Cn2nc(C)c(NC(=O)c3cc(C(N)=O)nc4cc(F)ccc34)c2C)cc1 is at least 7.
-- reply Y

---

Target: GLUT1 (Homo sapiens, UniProt P11166)
Sequence (P11166 1-492): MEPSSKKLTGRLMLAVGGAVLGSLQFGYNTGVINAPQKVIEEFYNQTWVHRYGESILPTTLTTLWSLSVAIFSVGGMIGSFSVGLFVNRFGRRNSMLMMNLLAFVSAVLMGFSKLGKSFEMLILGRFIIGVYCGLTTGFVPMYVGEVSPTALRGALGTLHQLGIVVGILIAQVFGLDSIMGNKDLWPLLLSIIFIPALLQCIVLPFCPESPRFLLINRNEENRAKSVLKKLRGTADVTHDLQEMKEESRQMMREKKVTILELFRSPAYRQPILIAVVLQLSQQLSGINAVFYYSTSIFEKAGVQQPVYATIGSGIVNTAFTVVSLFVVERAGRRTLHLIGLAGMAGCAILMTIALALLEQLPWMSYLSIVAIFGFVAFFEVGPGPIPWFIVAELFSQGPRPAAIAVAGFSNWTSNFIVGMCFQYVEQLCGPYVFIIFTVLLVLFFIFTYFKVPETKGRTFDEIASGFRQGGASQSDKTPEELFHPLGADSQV
Assay: Indirect measurement of GLUT1 activity by quantification of intracellular ATP levels (glucose induced ATP increase)
Format: cell-based
Parameters: endogenous in cells; host or cells: DLD1 or CHO-K1
Details: read-out: IC50 regarding glucose induced ATP increase (GLUT1 inhibition)
propertyName: IC50 (µM)
Give bare numbers, in µM.

Cc1ccc2nc(C)cc(C(=O)Nc3c(C)nn(Cc4ccc(C(=O)NCCO)cc4)c3C)c2c1 [Example 202] = 0.562
Cc1nn(Cc2ccc(C(=O)NCc3cccc(O)c3)cc2)c(C)c1NC(=O)c1cc(C(F)(F)F)nc2ccc(Br)cc12 [Example 1209] = 0.502
Cc1nn(Cc2ncccc2C#N)c(C)c1NC(=O)c1cc(C(F)(F)F)nc2ccc(Br)cc12 [Example 234] = 0.0092
Cc1nn(Cc2noc(C(=O)N(C)C)n2)c(C)c1NC(=O)c1cc(C(F)(F)F)nc2ccc(Br)cc12 [Example 1522] = 0.6
Cc1nn(Cc2nc(C3CC3)no2)c(C)c1NC(=O)c1cc(C(F)(F)F)nc2ccc(Br)cc12 [Example 1502] = 0.213

Hey, quick one: what's IC50 for each of these?
1. Cc1nn(Cc2c(F)cc(C#N)cc2F)c(C)c1NC(=O)c1cc(C(N)=O)nc2ccccc12 [Example 391]
2. Cc1nn(Cc2ccc(C#N)nc2)c(C)c1NC(=O)c1cc(C(N)=O)nc2ccccc12 [Example 225]

-- reply
1: 0.007; 2: 0.014
